Hey, just so you know, these numbers are from PubChem BioAssay (NCI).

Tested on: HOP-92 NSCLC
protocol.text: NCI tumour cell line growth inhibition, 48 h
assay.metric: TGI (µM)
Give the quantity in µM, number only.

Solved cases below.
O=C(Nc1nc2ccc([N+](=O)[O-])cc2s1)C(=O)C(C1OC(=O)c2ccccc21)[N+](=O)[O-] (stereo not given)
82.9
CN(C)C(=O)O/N=C1/C(c2c(O)[nH]c3ccccc23)=Nc2ccccc21
33
C1=C2/CC[C@H](Sc3ccccc3)C2C2(CCCCC/1)OCCO2 (stereo not given in full)
29.6
CC(=O)OC1OC([C@@H]2c3cccc(O)c3C(=O)c3c(O)cc(C)cc32)C(O)C(O)C1O (stereo not given in full)
0.0717
Cc1ccc(N=NC(=Nc2ccccc2)c2ccc(N(CCC#N)CCC#N)cc2)cc1
64.8

Please examine the following record next.
Record for `Cc1ccccc1C(=O)N1CCc2c([nH]c3ccccc23)C1` under target or system HOP-92 NSCLC: TGI reported as 44.4

###

Test system: SK-MEL-28 melanoma
protocol.text: NCI tumour cell line growth inhibition, 48 h
Quick reference for TGI among some compounds

CCOC(=O)Cn1c(C(F)(F)F)nc2nc(Cl)c(Cl)nc21
> 100 µM

Lookup result for `CC(C)(C)N1CSC(=S)N(Cc2ccco2)C1` ; measured TGI: 10.8 µM

###

System: HOP-92 NSCLC
protocol.text: NCI tumour cell line growth inhibition, 48 h; in the data active = GI50 below about 0.43 µM; inactive = the rest
Can you answer with just one of these options? active, inactive

Example cases with answers are listed next.
CCC(=O)[C@H](C)[C@@H](OC(=O)[C@H](C)CC)[C@H](C)[C@H]1OC(CC)=C(C)C(=O)[C@@H]1C
inactive
Cc1ccc(CN2CCC(C(=O)Nc3ccc(-c4cc5ccccc5[nH]4)cc3)CC2)o1
inactive
CN1CCCCC1CCN1c2ccccc2Sc2ccc(Cl)cc21 (stereo not drawn)
inactive

Per the records of this test, what outcome belongs to `CCN1/C(=C\c2cc[n+](CC)c3ccccc23)C=Cc2ccccc21` ?
active

Fill in: this test's call for `Nc1ccccc1C#C/C=C\C#Cc1ccccc1OC(F)(F)F` is ___
inactive

Recorded call for CCCCCCCCCCCCCC(=O)OC(/C=C/C(C)C)C(O)C(O)C(OC)C(=O)NC1CCCCN(C)C1=O (stereo not drawn) ?
inactive

Outcome logged for `O=C(Nc1ccc(-n2ccc3c(NC(=O)c4ccccc4)nccc32)cc1)c1ccc(Cl)c(C(F)(F)F)c1` in this assay:
inactive

// param item: `COc1cnc2c(c1)C(=O)c1c-2n(CCCN2CCOCC2)c(=O)c2cc(F)ccc12` ; yields the recorded call
inactive

###

TGI values for the molecules below.
System: COLO 205 colon
protocol.text: NCI tumour cell line growth inhibition, 48 h

CN1CCCCC1CCN1c2ccccc2Sc2ccc(Cl)cc21 (stereo not drawn)
4.83 µM

// TGI value for `O=C(CCc1nc(=S)[nH][nH]1)Nc1ccc(Cl)c(Cl)c1` : > 100 µM

Memo: `NC(N)=N/N=C/c1c(-c2ccc(N)cc2)nc2sccn12` , reported TGI: 57.8 µM

Sure, the documented TGI for `Nc1ccccc1S(=O)(=O)N(CC(=O)O)c1ccccc1` is > 100 µM

# TGI of `CCOC(=O)C(C)(C)Oc1ccc2c(-c3ccccc3)cc(=O)oc2c1` = 42.7 µM

###

Tested on: SF-539 CNS
protocol.text: NCI tumour cell line growth inhibition, 48 h
assay.metric: TGI

// known answers, use as guide
O=C1CCCSC(=O)N1Cc1ccccc1
> 100 µM
OC1CSSC1Cn1cnc2c(Nc3ccc(OCc4cccc(F)c4)c(Cl)c3)ncnc21 (stereo unspecified)
7.67 µM
COc1cccc(C2c3cc4c(cc3OC(C)(N3CCCC3)C2C)OCO4)c1O (stereo unspecified)
21.8 µM
C=CC1(C)CCC2C(=CCC3C2(C)CC(O)C(O)C3(C)COC2OC(C(=O)O)C(O)C(O)C2O)C1 (stereo unspecified) (tested in a mixture with another compound)
> 100 µM
CC(C)(C)N1CSC(=S)N(Cc2ccco2)C1
2.62 µM
COc1ccc(CC2c3cc4c(cc3CCN2C)OCO4)c(C=O)c1OC (stereo unspecified)
> 100 µM

Quick note, TGI for `CCN1CCN(Cc2ccc(NC(=O)c3cccc(C#Cc4cccc5[nH]nc(N)c45)c3)cc2C(F)(F)F)CC1` landed at 0.709 µM

The compound `CN(C)N=Nc1ccc(C(N)=O)cc1` showed TGI equal to > 100 µM

// TGI lookup, compound = `O=C(CCN1CCCCC1)C(=Cc1ccccc1)C(=O)CCN1CCCCC1` , result: > 100 µM

Looking up Fc1[nH]nc2ccc([C@@H]3Nc4ccc5[nH]ncc5c4[C@H]4C5CCC(C5)[C@@H]34)cc12 (stereo partly specified) , I found its TGI recorded as 3.94 µM

Per the records, this compound ( `COc1cc2c(c(OC)c1OC)C(=O)[C@@H]1[C@H]2N1C(N)=O` ) has TGI equal to > 100 µM

The recorded TGI for `COCO[C@@H]1C[C@H]2C(=O)Nc3ccccc3C(=O)N2C1` is > 100 µM

For record `C1CN(c2nc3c(nnc4nc(N5CCOCC5)sc43)s2)CCO1` the listed TGI is > 100 µM

Input `Cc1cn2c(/C=N/N=C(N)N)c(-c3cccc([N+](=O)[O-])c3)nc2s1` . Output TGI: 4.05 µM

Just so you know, measured TGI for CC1(C(=O)O)CCC[C@@]2(C)C1CC[C@@]1(C)c3cocc3CCC21 (stereo partly specified) came out at > 100 µM

// TGI lookup, compound = `CC(C)CCS(=O)(=O)OCCCCOS(=O)(=O)CCC(C)C` , result: > 100 µM

Please fill in: TGI reported for `Cc1ccc(CN2CCC(C(=O)Nc3ccc(-c4cc5ccccc5[nH]4)cc3)CC2)o1` = > 100 µM

So for `CCN(CC)CCSc1c2ccccc2nc2cc(NCC(=O)Nc3ccccc3-c3ccccc3NC(=O)CNc3ccc4c(SCCN(CC)CC)c5ccccc5nc4c3)ccc12` , the logged TGI turned out to be > 100 µM

The compound listed as `Nc1nc(-n2c(-c3ccccc3)nc3c(Br)cc(Br)cc3c2=O)nnc1-c1cccc(Cl)c1Cl` shows TGI equal to 40.4 µM

###

TGI values for the molecules below.
Tested on: HCT-15 colon
protocol.text: NCI tumour cell line growth inhibition, 48 h

Examples with their reported TGI follow.
C=C(C)C(OC)C(O)CC1(C)CC(O)CC(C)(C2CCC3OC(C4(C)CCC(Br)C(C)(C)O4)CCC3(C)O2)O1 (stereo not drawn)
> 68 µM
O=C1/C(=C/c2ccc(O)c(O)c2)CCC/C1=C\c1ccc(O)c(O)c1
33.3 µM
COc1ccc(-c2cc(O)c3nc4ccccc4n3c2)cc1
> 100 µM
COc1ccc(C2CC(c3c(O)ccc4ccccc34)=NN2C(C)=O)cc1OC (stereo not drawn)
> 100 µM
Cc1cc(NS(=O)(=O)c2ccc(Nc3c4ccccc4nc4c(C(=O)N5CCN(CCOS(C)(=O)=O)CC5)cccc34)cc2)no1
> 100 µM

The measured TGI associated with `CNS(=O)(=O)NNS(=O)(=O)c1ccccc1` reads > 100 µM

For reference, reported TGI for `O=C(O)CCNCCCNCCC(=O)O` stands at > 100 µM

Memo: `CCCCCCCCCCCC(=O)OCCOCCOCCOCCOCCOCc1ccccc1` , reported TGI: > 100 µM

Looking up `Cc1ccc(Cl)c2[nH]c(-c3ccccc3)cc(=O)c12` , I see its TGI listed as > 100 µM

Just so you know, measured TGI for `c1ccc(N=c2sc3ccccc3nc2Nc2ccccc2)cc1` came out at > 100 µM

Measured TGI of NC1=NCCC1(c1ccccc1)c1ccccn1 (stereo not drawn) : > 100 µM

TGI reading for CCCCCCCCCCCCCCNC(=O)CCC(NC(=O)c1ccc(N(C)Cc2cnc3nc(N)nc(N)c3n2)cc1)C(=O)NCCCCCCCCCCCCCC (stereo not drawn) : 28.2 µM

TGI for CC(C)(C)OC(=O)NCCCCC1NC(=O)[C@@H]2Cc3c([nH]c4ccccc34)C(C3CCCCC3)N2C1=O (stereo partly drawn) is > 100 µM

GET /value?item= CNC(=S)OCCC(C)CCCC(C)C (stereo not drawn) &field=TGI returns 27.9 µM

Entry under test: COC1/C=C/OC2(C)Oc3c(C)c(O)c4c(O)c(c(/C=N/Nc5ccc([N+](=O)[O-])cc5[N+](=O)[O-])c(O)c4c3C2=O)NC(=O)C(C)=C/C=C/C(C)C(O)C(C)C(O)C(C)C(OC(C)=O)C1C (stereo not drawn) . Its TGI was 31.1 µM

# molecule CC(C)=CCc1c2c(c3occ(-c4ccc(O)cc4)c(=O)c3c1O)CC(C(C)(C)O)O2 (stereo not drawn) ; its TGI = 30 µM

So, `COc1cccc(C(=O)O[C@H]2[C@@H]3[C@]4(OC(C)=O)CO[C@@H]4C[C@H](O)[C@@]3(C)C(=O)[C@H](OC(C)=O)C3=C(C)[C@@H](OC(=O)[C@H](O)[C@@H](NC(=O)OC(C)(C)C)c4ccco4)C[C@]2(O)C3(C)C)c1` ? Its TGI was > 16.4 µM

Lab note: measured TGI of `Cc1ccc(-c2n[nH]c(=O)n2N2C(=O)c3ccccc3C2=O)cc1` was > 100 µM
